Target: 5-hydroxytryptamine receptor 5A (Homo sapiens) (UniProt P47898)
Sequence (P47898 whole entry, looked up): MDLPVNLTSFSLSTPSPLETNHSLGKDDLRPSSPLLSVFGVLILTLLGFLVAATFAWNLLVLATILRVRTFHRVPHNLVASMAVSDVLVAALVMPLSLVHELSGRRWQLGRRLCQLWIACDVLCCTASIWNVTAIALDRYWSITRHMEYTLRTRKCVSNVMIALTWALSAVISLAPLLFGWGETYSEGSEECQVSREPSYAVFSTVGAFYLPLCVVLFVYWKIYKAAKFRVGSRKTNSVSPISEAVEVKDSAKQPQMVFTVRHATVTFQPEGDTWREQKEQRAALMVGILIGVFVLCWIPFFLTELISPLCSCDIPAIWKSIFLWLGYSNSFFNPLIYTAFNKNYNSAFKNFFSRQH
Assay: HTR5A inverse agonists, counter-screen for OPRM1-OPRD1 inverse agonist project, cell-based, luminescence (AID 504914);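 also: 0% = cells with DMSO and 100% = no-cell wells with DMSO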
Details: HTR5A-expressing cells, inverse agonism, at 9.3 µM, active compounds read high
Some of the results follow.
# inhibition per record follows
Respond numerically; units are % and should not be typed.

{"columns": ["Compound", "inhibition / %"],
 "data": [
  ["CCCCC(=O)NNC(=S)NC(=O)C(c1ccccc1)c1ccccc1", -76],
  ["Cc1ccc(NC2(C#N)C(=O)Nc3ccccc32)cc1 (stereo not drawn)", -97.2],
  ["Cc1ccc2c(c1)C(O)(CC(=O)c1cccnc1)C(=O)N2 (stereo not drawn)", 0],
  ["C=CCn1c(N)c(C(=O)OCC(C)C)c2nc3ccccc3nc21", 10.8],
  ["Cc1cccc2c1N(CCOc1ccccc1)C(=O)C2=O", 10.3],
  ["Cc1cccc(N=Nc2c(O)[nH]c3ccc(F)cc23)c1", 22.6]
]}

# evaluate next
Lab book: inhibition of N#CC1=C(N)C(C#N)(C#N)[C@H](c2ccsc2)[C@H]2COCC=C12 noted as -8.6

====

Biological target: 5-hydroxytryptamine receptor 5A (Homo sapiens) (UniProt P47898)
Assay: HTR5A inverse agonists, counter-screen for OPRM1-OPRD1 inverse agonist project, cell-based, luminescence (AID 504914);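 also: 0% = cells with DMSO and 100% = no-cell wells with DMSO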
Details: HTR5A-expressing cells, inverse agonism, at 9.3 µM, active compounds read high
Some of the results follow.
Measure: inhibition (%)
Respond numerically; units are % and should not be typed.

See these solved cases before continuing.
{"columns": ["Compound", "Endpoint Unit", "Result Number"],
 "data": [
  ["O=C(CCl)NNc1cccc(Cl)n1", "%", 8.61],
  ["CCOC(=O)CN1C(=O)C(O)(CC(=O)c2ccccn2)c2ccccc21 (stereo unspecified)", "%", 10.2]
]}

Lab book: inhibition of CN(C)/C=C1/Nc2ccccc2C1=O noted as 5.59

Lab book: inhibition of CN(O)C(=S)c1ccccc1 noted as 26.7

Lab book: inhibition of Cc1ccc(NNC(=O)c2cccs2)cc1Cl noted as -15

Lab book: inhibition of O=[N+]([O-])/C=C/c1ccc2c(ccn2Cc2ccccc2)c1 noted as -16.4

Lab book: inhibition of Oc1ccc(N=Nc2nccs2)c(O)c1 noted as 23.3

Lab book: inhibition of COC(=O)Cc1c(-c2[nH]c3ccccc3c2CC(=O)OC)[nH]c2ccccc12 noted as -66.2

Lab book: inhibition of Cc1cccc(C)c1NC(=O)C(Cl)C(=O)c1ccccc1 (stereo unspecified) noted as -75.6

Lab book: inhibition of Cc1cccc2c1N(CC(=O)OC(C)C)C(=O)C2=O noted as -14.5

Lab book: inhibition of CC(C)OC(=O)CN1C(=O)C(=O)c2ccccc21 noted as 4.72
